Each record here notes measured inhibition at 1 µM.
- studyTarget: PDE 3 (Homo sapiens)
- Construct: The fractions containing the enzymatic activities (PDE 3 or PDE 5) were pooled; from tissue; host or cells: human platelets from platelet rich plasma of healthy volunteers
- Sequence (Q14432 whole entry): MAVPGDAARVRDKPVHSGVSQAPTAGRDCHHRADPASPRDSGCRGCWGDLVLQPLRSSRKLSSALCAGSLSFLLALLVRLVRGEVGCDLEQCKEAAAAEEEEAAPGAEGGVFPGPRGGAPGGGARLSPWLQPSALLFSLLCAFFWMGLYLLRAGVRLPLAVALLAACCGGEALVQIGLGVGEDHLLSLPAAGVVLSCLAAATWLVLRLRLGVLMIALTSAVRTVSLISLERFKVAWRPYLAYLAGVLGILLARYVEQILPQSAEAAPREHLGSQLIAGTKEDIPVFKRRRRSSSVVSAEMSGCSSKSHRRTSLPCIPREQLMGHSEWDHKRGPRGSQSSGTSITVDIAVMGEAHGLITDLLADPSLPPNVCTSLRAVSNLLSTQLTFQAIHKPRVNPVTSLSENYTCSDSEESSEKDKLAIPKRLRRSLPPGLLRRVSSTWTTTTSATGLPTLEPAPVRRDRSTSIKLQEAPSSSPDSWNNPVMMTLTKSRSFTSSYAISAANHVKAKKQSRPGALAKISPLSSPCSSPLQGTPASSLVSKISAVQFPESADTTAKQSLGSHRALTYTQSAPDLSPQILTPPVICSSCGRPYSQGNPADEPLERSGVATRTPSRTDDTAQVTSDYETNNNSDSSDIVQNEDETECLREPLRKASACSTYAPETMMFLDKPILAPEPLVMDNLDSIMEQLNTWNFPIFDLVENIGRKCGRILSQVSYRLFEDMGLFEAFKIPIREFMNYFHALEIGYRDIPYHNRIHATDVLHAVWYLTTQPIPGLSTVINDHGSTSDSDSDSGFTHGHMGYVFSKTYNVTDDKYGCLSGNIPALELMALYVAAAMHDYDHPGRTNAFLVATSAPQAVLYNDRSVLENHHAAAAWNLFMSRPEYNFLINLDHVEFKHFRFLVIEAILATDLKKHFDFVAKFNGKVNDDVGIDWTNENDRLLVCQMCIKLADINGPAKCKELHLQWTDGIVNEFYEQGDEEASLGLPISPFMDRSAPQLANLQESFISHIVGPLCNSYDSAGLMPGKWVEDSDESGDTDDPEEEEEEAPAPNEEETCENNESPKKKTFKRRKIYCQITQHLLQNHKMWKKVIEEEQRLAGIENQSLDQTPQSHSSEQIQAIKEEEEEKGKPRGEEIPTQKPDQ
- assayInfo: PDE 3 enzyme inhibition (SPA)
- Assay type: biochemical
- studyConditions: 10^−6 M; PDE 3 from human platelets; cAMP
Answer with the value and then the unit.

Take a look at these entries with their results.
What value of inhibition at 1 µM has been recorded for this entry: `COc1ccc2c(c1)CN(C(=O)C(C)C)N=C2Cc1c(Cl)cncc1Cl`
17%

What value of inhibition at 1 µM has been recorded for this entry: `COc1ccc2c(Cc3c(Cl)cncc3Cl)nnc(-n3cncn3)c2c1`
-4%

What value of inhibition at 1 µM has been recorded for this entry: `CNC(=O)N1Cc2cc(OC)ccc2C(Cc2c(Cl)cncc2Cl)=N1`
12%

What value of inhibition at 1 µM has been recorded for this entry: `CCn1nc(Cc2c(Cl)cncc2Cl)c2ccc(OC)cc2c1=O`
5%

What value of inhibition at 1 µM has been recorded for this entry: `COc1ccc2c(Cc3c(Cl)cncc3Cl)nnc(N3CCOCC3)c2c1`
-2%

Now let's try a different one.
What value of inhibition at 1 µM has been recorded for this entry: `COc1ccc2c(c1)CN(C(C)=O)N=C2Cc1c(Cl)cncc1Cl`
12%

###

- studyTarget: PDE 3 (Homo sapiens)
- Construct: The fractions containing the enzymatic activities (PDE 3 or PDE 5) were pooled; from tissue; host or cells: human platelets from platelet rich plasma of healthy volunteers
- assayInfo: PDE 3 enzyme inhibition (SPA)
- Format: biochemical
- studyConditions: 10^−6 M; PDE 3 from human platelets; cAMP
outcomeMeasure: inhibition at 1 µM (%)
Give the value in % but do not write % after it.

What value of inhibition at 1 µM has been recorded for this entry: `COc1ccc2c(Cc3c(Cl)cncc3Cl)nnc(C#Cc3ccccc3)c2c1`
15

Further cases:
What value of inhibition at 1 µM has been recorded for this entry: `C#Cc1nnc(Cc2c(Cl)cncc2Cl)c2ccc(OC)cc12`
-2

What value of inhibition at 1 µM has been recorded for this entry: `COc1ccc2c(Cc3c(Cl)cncc3Cl)nnc(-c3ccccc3)c2c1`
7

What value of inhibition at 1 µM has been recorded for this entry: `COc1ccc2c(Cc3c(Cl)cncc3Cl)nn(CCCCCc3ccccc3)c(=O)c2c1`
19

What value of inhibition at 1 µM has been recorded for this entry: `COc1ccc2c(Cc3c(Cl)cncc3Cl)nnc(N3CCCC3)c2c1`
-10

What value of inhibition at 1 µM has been recorded for this entry: `COc1ccc2c(Cc3c(Cl)cncc3Cl)nn(CCc3ccccc3)c(=O)c2c1`
20

What value of inhibition at 1 µM has been recorded for this entry: `COc1ccc2c(c1)CN(S(C)(=O)=O)N=C2Cc1c(Cl)cncc1Cl`
15

What value of inhibition at 1 µM has been recorded for this entry: `FC(F)Oc1ccc2c(Cc3c(Cl)cncc3Cl)nnc(-n3cncn3)c2c1`
2

What value of inhibition at 1 µM has been recorded for this entry: `COc1ccc2c(Cc3c(Cl)cncc3Cl)nnc(CN3CCOCC3)c2c1`
-9

###

- studyTarget: PDE 4
- assayInfo: PDE 4 enzyme inhibition (SPA)
- studyConditions: PDE 4 purified from human PMNs; cAMP 1 μM
Where a name gives a salt, the structure may show the parent alone.
The threshold is 70 nM. Values of IC50 beneath it are tagged Met; values meeting or exceeding it are tagged Not met.

Use these answered entries as a reference point.
I wonder whether `COc1ccc2c(Cc3c(Cl)cncc3Cl)nnc(CN3CCOCC3)c2c1` has IC50 below 70 nM. Can you tell?
Not met

I wonder whether `FC(F)Oc1ccc2c(Cc3c(Cl)cncc3Cl)nnc(N3CCOCC3)c2c1` has IC50 below 70 nM. Can you tell?
Not met

I wonder whether COc1ccc2c(Cc3c(Cl)cncc3Cl)nncc2c1C#CCCCN1CCOCC1 [Compound 36, dihydrochloride] has IC50 below 70 nM. Can you tell?
Not met

I wonder whether `COc1ccc2c(Cc3c(Cl)cncc3Cl)nn(S(C)(=O)=O)c(=O)c2c1` has IC50 below 70 nM. Can you tell?
Met

I wonder whether `COc1ccc2c(Cc3c(Cl)cncc3Cl)nnc(-n3cncn3)c2c1` has IC50 below 70 nM. Can you tell?
Not met

Further cases:
I wonder whether `CCn1nc(Cc2c(Cl)cncc2Cl)c2ccc(OC)cc2c1=O` has IC50 below 70 nM. Can you tell?
Not met

I wonder whether `COc1ccc2c(Cc3c(Cl)cncc3Cl)nn(CCc3ccccc3)c(=O)c2c1` has IC50 below 70 nM. Can you tell?
Not met

I wonder whether `COc1ccc2c(c1)CN(C(C)=O)N=C2Cc1c(Cl)cncc1Cl` has IC50 below 70 nM. Can you tell?
Met

I wonder whether `COc1ccc2c(Cc3c(Cl)cncc3Cl)nnc(-c3nccs3)c2c1` has IC50 below 70 nM. Can you tell?
Met

I wonder whether `COc1ccc2c(c1)CN(C(N)=O)N=C2Cc1c(Cl)cncc1Cl` has IC50 below 70 nM. Can you tell?
Met

I wonder whether `CNC(=O)N1Cc2cc(OC)ccc2C(Cc2c(Cl)cncc2Cl)=N1` has IC50 below 70 nM. Can you tell?
Not met

I wonder whether `COc1ccc2c(c1)CN(C(=O)c1ccccc1)N=C2Cc1c(Cl)cncc1Cl` has IC50 below 70 nM. Can you tell?
Met

I wonder whether `COc1ccc2c(c1)CN(C(=O)C(C)C)N=C2Cc1c(Cl)cncc1Cl` has IC50 below 70 nM. Can you tell?
Met
